meta.source: patent US20230233569A1

assayed-system: KRAS G12S (Homo sapiens, UniProt P01116+P62937, G12S)
Sequence (P01116 1-169 isoform P01116-2 G12S limits assumed): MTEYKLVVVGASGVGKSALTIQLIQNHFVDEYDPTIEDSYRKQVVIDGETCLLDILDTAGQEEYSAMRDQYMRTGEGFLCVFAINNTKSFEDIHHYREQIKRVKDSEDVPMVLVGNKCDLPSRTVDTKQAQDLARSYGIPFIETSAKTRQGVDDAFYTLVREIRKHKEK
Sequence (P62937 whole entry): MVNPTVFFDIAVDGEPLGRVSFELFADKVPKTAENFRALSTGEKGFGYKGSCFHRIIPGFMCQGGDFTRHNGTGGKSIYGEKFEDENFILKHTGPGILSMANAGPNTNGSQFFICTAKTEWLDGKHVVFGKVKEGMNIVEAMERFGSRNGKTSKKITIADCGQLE
assay-explanation: Ras-Raf disruption / FRET / MOA assay (BRAF RBD)
Type: biochemical
study-conditions: Ras-Raf disruption, with Cyclophilin A; read-out: KRAS G12S FRET data IC50
readout: IC50

# per-item lookup of IC50; items listed below
1. CCn1c(-c2cccnc2[C@H](C)OC)c2c3cc(ccc31)-c1cc(O)cc(c1)C[C@H](NC(=O)[C@H](C(C)C)N(C)C(=O)[C@H]1CCN(C(=O)C3CO3)C1)C(=O)N1CCC[C@H](N1)C(=O)OCC(C)(C)C2 (some centres unmarked)
2. CCn1c(-c2cccnc2[C@H](C)OC)c2c3cc(ccc31)-c1csc(n1)C[C@H](NC(=O)[C@H](C(C)C)N(C)C(=O)N1CCN(C(=O)[C@@H]3CN3)C[C@H]1C)C(=O)N1CCC[C@H](N1)C(=O)OCC(C)(C)C2
3. CCn1c(-c2cccnc2[C@H](C)OC)c2c3cc(ccc31)-c1csc(n1)C[C@H](NC(=O)[C@H](C(C)C)N(C)C(=O)N(C)C1CN(C(=O)[C@@H]3CN3)C1)C(=O)N1CCC[C@H](N1)C(=O)OCC(C)(C)C2
4. CCn1c(-c2cccnc2[C@H](C)OC)c2c3cc(ccc31)-c1cc(O)cc(c1)C[C@H](NC(=O)[C@H](C(C)C)N(C)C(=O)N1CCN(C(=O)[C@@H]3CN3)CC1=O)C(=O)N1CCC[C@H](N1)C(=O)OCC(C)(C)C2 (atropisomer, axis not shown)
5. CCn1c(-c2cccnc2[C@H](C)OC)c2c3cc(ccc31)-c1cc(O)cc(c1)C[C@H](NC(=O)[C@H](C(C)C)N(C)C(=O)N1CCN(C(=O)[C@H]3CN3)CC1=O)C(=O)N1CCC[C@H](N1)C(=O)OCC(C)(C)C2 (atropisomer, axis not shown)

10 to 100 nM
10 to 100 nM
100 to 1000 nM
100 to 1000 nM
100 to 1000 nM

Return reported IC50 values for all items listed beneath this line.
1. CCn1c(-c2cccnc2[C@H](C)OC)c2c3cc(ccc31)-c1csc(n1)C[C@H](NC(=O)[C@H](C(C)C)N(C)C(=O)N1CC[C@@H](N(C)C(=O)[C@H]3CN3)C1)C(=O)N1CCC[C@H](N1)C(=O)OCC(C)(C)C2 (atropisomer, axis not shown)
2. CCn1c(-c2cccnc2[C@H](C)OC)c2c3cc(ccc31)-c1cc(O)cc(c1)C[C@H](NC(=O)[C@H](C(C)C)N1CC[C@@]3(CCN(C(=O)[C@H]4CN4)C3)C1=O)C(=O)N1CCC[C@H](N1)C(=O)OCC(C)(C)C2
3. CCn1c(-c2cccnc2[C@H](C)OC)c2c3cc(ccc31)-c1csc(n1)C[C@H](NC(=O)[C@H](C(C)C)N(C)C(=O)N(C)CC1CN(C(=O)[C@H]3CN3)C1)C(=O)N1CCC[C@H](N1)C(=O)OCC(C)(C)C2 (atropisomer, axis not shown)

["100 to 1000 nM", "10 to 100 nM", "100 to 1000 nM"]
